Recorded values, source the RNAGym collection of RNA variant scans (doi:10.1126/science.aae0568).

B1: tRNA (parent)
chain: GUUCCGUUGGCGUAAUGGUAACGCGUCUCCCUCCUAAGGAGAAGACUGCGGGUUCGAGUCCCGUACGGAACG

variants of: B1; test: yeast fitness relative to wild type (ratio to wild type); higher = fitter; tRNA-Arg(CCU), competitive growth, 37 C, YPD
This sample holds only a part of the variants without activity.
In this section we review reported yeast fitness values for a set of variants.
EXPERIMENTAL_ENDPOINT: yeast fitness

1. GUUUCGUUGGCGUAAUGGUAACGCGUCUCCCUCCUAUGGAGAAGACUGCGGAUUCGAGUCCCGUACGGAACG [C4U A37U G52A]
≤ 0.5
2. GUUCCGUUGGCGUAAUGGUAACGCGUCUCCCUCCUAAGGAGAAGACUGCGGGUUCGAGUCCCGUCCGAAACG [A65C G68A]
0.767
3. GUUCCGUUGGCGUAAUGGUAUUGCGUCUCCCUCCUAAGGAGAAGACUGCGGGUUCGAGCCCCGUACGGAACG [A21U C22U U59C]
≤ 0.5
4. GUUCCGUUGGCGUAAUGGUAACGCGUCUCCCUCCUAAGCAGAAGACAGCGGGUUCGCGUCCCGUACGGAACG [G39C U47A A57C]
≤ 0.5
5. GUUCCGUUGGCGUUAUGGUCACGCGUUUCCCUCCCAAGGAGAAGACUACGGGUUCGAGUCCAGUACGGAACG [A14U A20C C27U U35C G48A C62A]
≤ 0.5
6. GUUCCGUUGGCCAAAGGGUAACGGGUCUCCCUCCUAAGGAGAAGACUGCGGGUUCGAGUCCCGUACGGUACG [G12C U13A U16G C24G A69U]
≤ 0.5
7. GUUCCGUUGACGUAAUGGUAACGCGUCUCCCUCCUAAGGAGAAGGCUGCGGGUUCGAGCCCCGUACGGAACG [G10A A45G U59C]
0.616
8. GUUCCGUUGGCGUAAUGGUAACGCGUCUCCAUCCUAAGGGGAGGACUGCGGCUUCGAGGCCCGUACGGAACG [C31A A40G A43G G52C U59G]
≤ 0.5
9. GUUCUGUUGGCGUAAUGGUAACGCGUCUCCCGCCUUAGGAGAAGACUGCGGGUUCGAGUCCCGUACGGAACG [C5U U32G A36U]
≤ 0.5
10. GUUCCGUUGGCGUAAUGGUAACGCCUCUGCCUCCUAAGGUGAAGACUGCGGGUUCGAGUCCCGUACGGAACG [G25C C29G A40U]
≤ 0.5
11. GUUCCGUUGGUGUAAUGGUAACGCGGCUCCCACCUAAGGAGACGACUGCGGGCUCGAGUCCCGUACGGAUCG [C11U U26G U32A A43C U53C A70U]
≤ 0.5
12. GUUCCGUUUGCGUAAAGGUAACGCGUCUCCCUCCUCGGGAGAAGACUGCGGGUUCCAGUCCCGUACGGAACG [G9U U16A A36C A37G G56C]
≤ 0.5
13. GUUCCGUUGGCGUAAUGGUAAGGCGUCUGCCUCCUAAGGAGAAGAUUGCGGGUUCGAGUCCCGUAUGGAACG [C22G C29G C46U C66U]
≤ 0.5
14. GUUCCGUUGGAGUAAUGGUAACGCGUCUCCCUCCUAAGGAGAAGACUGCGGGUUCGAGUCCCGUACUGAACG [C11A G67U]
0.584
15. GAUCCGUUGGCGUAAUGGUAACGCGUCUCCCUCCUAACGAGAAGACUGCGGGUUCGAGUCCCGUACGGAACG [U2A G38C]
0.635
16. GUUUGGUUGGCGUAAUGGUAACGCGUCUCCCUCCUAAGGAAAAGACUGCGGGUUCGAGUCCCGUACGGAACG [C4U C5G G41A]
0.505
17. GUUCCGUUGGCGUAAGGGUAACGCGUCUUCAUCCUAAGGAGAAGACUGCGGGUUCGCGUCCCGUACCGAACG [U16G C29U C31A A57C G67C]
≤ 0.5
18. GUUCAGUUGGCGUAAUGGUAACGCGUCUCACUCCUAAGGAGAAGACUGCGGGUUCGAGUCCCGUACGGAUCG [C5A C30A A70U]
0.742
19. GUUCCGUUGGCGUACUGGUAACGCGUCUCACUCCUAAGGAGAAGACUGCGGGUUCGAGUCCCAUACGGAACG [A15C C30A G63A]
≤ 0.5
20. GUUCCGUUGGCCUAAUGGUAACGCGUCUCCCUCCUAAGGAGAAGACUGCGGGUUCGAGGCCCGUACGGAACG [G12C U59G]
0.79
21. GUUCCGUUGGCGUAAUGGUAACGCGUCUCCCUCCUAGGGAGAAGACUGCGGGUUCGAGUCCCGUAAGGAACG [A37G C66A]
0.63
22. GUUCCGUUGGCGUAUUAGUAACGCGUCUCCCUCCUAAGGAGAAGACUGCGGGCUCGAGUCCCGUAUGGUACG [A15U G17A U53C C66U A69U]
≤ 0.5
23. GUUCUGUUGCCGUAGUGGUAACGCGUCUCCCUCCUAAGGAGAAGACUGCGGGUUCGAGUCCCGUACUGAACG [C5U G10C A15G G67U]
≤ 0.5
24. GUUCCGUUGGCGUAAAGGCAACGCGUCUCCCUCCUAAGGAGAAGACUGCGGGUUCGAGUCACGUUCGGAACG [U16A U19C C61A A65U]
0.6
25. GUUCCGUUGGCGUAAUGGUGACGCGUCUCCCUCCUAAGGAGAAGACUAGGGGUUCGAGUCCCGUACGGAACG [A20G G48A C49G]
0.635
26. GUUCCGUUGGCGUAAUGAUAACGCGUCUCCCUCCUAAGGAGACGACUGCGGGUUCGAGUCCCGUAGGGAACG [G18A A43C C66G]
0.505
27. GUUCCGUUGGCGUAAUGCUAACGCGUCUCCCUCCUAAGGAGAAAACUGCGGGUUCGAGUCCGGUACGGAACG [G18C G44A C62G]
≤ 0.5
28. GUUCCGUUGGCGUAAUGGUUAGGCGUCUCCCUCCUAAGGGGAAGACUGCGGGUUCGAGUCCCGUAUGGAACG [A20U C22G A40G C66U]
≤ 0.5
29. GUUCCGUUGGCGUAAUGGUAACCCGUCUCCCUCCUUAGGAGAAGACUGCGCGUUCGAGUCCCGUACGGAACG [G23C A36U G51C]
≤ 0.5
30. GUUCCGGUGGCGUAAUGGUAACGCGUCUCCCUCCUAAGGAGAAGCCUGUGGGUUCGAGUCCCGUACGGAACG [U7G A45C C49U]
0.508
31. GUUCCGUUGGCGUAGUGGUAACCCGUCUCCCUCCUAACGAGAAGACUGCGGCUCCGAAUCCCGUACGGAACG [A15G G23C G38C G52C U54C G58A]
≤ 0.5
32. GUUCCGUUGGCGUAAUGGUAACGCGUCUCCCUGCUAAGGAGAAGACUGCGGGUUCGAGUCAUGUACGGAACG [C33G C61A C62U]
≤ 0.5
33. GUUCCGUUGGGGUAAUGGUAACGCGUCUCCCUCCUAAGGAGGAGACUGCGGGUCCGCGUCCCGUACGGAACG [C11G A42G U54C A57C]
≤ 0.5
34. GUUCUGUUGGCGUAAGGGUAACGCGUCUCCCUCCUAAGGAGAAGACUGCGGGUUCGAGUCCCGUGUGGAACG [C5U U16G A65G C66U]
≤ 0.5
35. GAUCCGUUGGCGUAAUGGUAACGCGUCUCCCUCCUAAGGAGAAGACUGCGGGUUCGUGUCCCGUACGCAACG [U2A A57U G68C]
≤ 0.5
36. GUUCCGUUGGCGUAAUGGUAACGCGUCUCCCUCCUAAGGAGAAGACUGUGGGUUCGAGUCCGGUACGGAACG [C49U C62G]
0.704
37. GUUCCAUUGGCAUAAUGGUAACGCGUCUCCCUCCUAAGGAGAAGACUGCGGGUUCGAGUCCCGUACGGAUCG [G6A G12A A70U]
0.656
38. GUUCCGUUGGCGUAAUGGUAACGCGUCUCCCUCGUAAGGAGAAGACUGCGGGUUCGAGUCCAAUACGGAACG [C34G C62A G63A]
≤ 0.5
39. GUUCCGUUGGCGUAAUGGUAACGCGUCUUCCUCCUAAGGAGAAGACUGCGGGUUCGGGUGCCGCACGGAACG [C29U A57G C60G U64C]
0.609
40. GUUCCGUUGGCGUAAUGGUAACGCGUAUCCCUCCUAAGGAGAAGAAUGCGGGUUCGAGUCCCGUAUGGAACG [C27A C46A C66U]
0.704
41. GUUCCGUUGGCGUAUUGCUAACCGGUCUCCCUCCUAAGGAGAAGACUGCGGGUUCGAGUCCCGUACGGAACG [A15U G18C G23C C24G]
≤ 0.5
42. GUUCCGUUGGCGUAAUGGUAACGCGUCUCGCUCCUAAGGAGAAGACUGCGGGUUCGAGUCUCGUACGAAACG [C30G C61U G68A]
0.541
43. GUUCCGUUGGCGUAAUGGUAACGCGUCUCCCUCAUAAGGAGAAGAAUGCGGGUUCGAGUCCCGUACGGAACG [C34A C46A]
0.691
44. GUUCCGUUGGCGUAAUGGUAAUGCGUCUCCCUCUUAAGGAGAAGACUGCGGGUUCGAGUCCUGUACGGACCG [C22U C34U C62U A70C]
≤ 0.5
45. GUUCCGUUGGCGUAAUGGUAAGGCGUGUGCCUCCUAAGGAGAAGACUGUGGGUUCGAGUCCCGUACGGAACG [C22G C27G C29G C49U]
≤ 0.5
46. GUUCAAUUGGCGUAAAGGUAACGCGUCUCCCUCCUAAGGAGAAGGCUGCAGGUUCGAGUCCCGUACGGAACG [C5A G6A U16A A45G G50A]
≤ 0.5
